Below, each entry is listed with its recorded GI50.
# System: OVCAR-5
# experiment-description: NCI tumour cell line growth inhibition, 48 h
The source made the active and inactive calls. Cut-off read from the data, not from the text of the source: active = GI50 up to about 1.1 µM and inactive = higher.

Ask: Please give the documented GI50 of COc1ccc([Se]c2ccc(OC)cc2OC)c(OC)c1
Result: > 100 µM (inactive)

Ask: Please give the documented GI50 of c1ccc(/C(=N/Nc2nc3ccccc3s2)C2CCCCC2)nc1
Result: 3.26 µM (inactive)

Ask: Please give the documented GI50 of CSc1nc(NC2OC(COC(C)=O)C(OC(C)=O)C(OC(C)=O)C2OC(C)=O)c(/N=C/C=N/c2c(NC3OC(COC(C)=O)C(OC(C)=O)C(OC(C)=O)C3OC(C)=O)nc(SC)[nH]c2=O)c(=O)[nH]1 (stereo not given)
Result: > 100 µM (inactive)

Ask: Please give the documented GI50 of O=C(OCN1C(=O)C2C3C=CC(C2C1=O)C1C2C(=O)N(COC(=O)C4CCCN4)C(=O)C2C31)C1CCCN1 (stereo not given)
Result: > 100 µM (inactive)

Ask: Please give the documented GI50 of CC1(Br)C(=O)NC(=O)N(C2CC(N=[N+]=[N-])C(CO)O2)C1N=[N+]=[N-] (stereo not given)
Result: > 100 µM (inactive)

* * *

# Test system: NCI-H460
# experiment-description: NCI tumour cell line growth inhibition, 48 h
The source made the active and inactive calls. Rule as the data show it: active = GI50 up to about 1.1 µM and inactive = higher.
Your response should consist of one outcome taken from active, inactive

Before answering, review these 4 worked examples.
compound	assay-target	class-label
COc1ccc(C[C@H]2NC[C@H](O)[C@H]2OC(C)=O)cc1	NCI-H460	active
CCCCCCCCCCCC(=O)OC(COC(N)=O)COc1ccc(Cl)cc1 (stereo unspecified)	NCI-H460	inactive
O=c1[nH]c(=O)n(C2COC(CO)C2O)cc1F (stereo unspecified)	NCI-H460	inactive
Nc1nc(Cl)c(N)c(NCC2(CO)CC(OCc3ccccc3)C2)n1 (stereo unspecified)	NCI-H460	inactive

Ask: For this compound, state the assay outcome: COC(=O)C1=CSC2(S1)C(C(=O)OC)=CSc1c2ss/c1=N\c1ccccc1 (stereo unspecified)
Result: inactive

Ask: For this compound, state the assay outcome: O=C1CCC[C@]2(CCCC(=O)N2)C1
Result: inactive

* * *

# System: EKVX
# experiment-description: NCI tumour cell line growth inhibition, 48 h
Activity calls are given as the source filed them. Rule as the data show it: active = GI50 up to about 1.1 µM and inactive = higher.
reported-property: GI50

Previously resolved entries follow.
compound	assay-target	GI50
C[n+]1c(-c2ccc(/C=N\NC(=O)c3ccc(C(=O)N/N=C/c4ccc(-c5cn6ccsc6[n+]5C)cc4)cc3)cc2)cn2ccsc21	EKVX	15.8 µM (inactive)
COc1cc(Br)cc2cc(-c3cn4ccsc4n3)c(=O)oc12	EKVX	29.2 µM (inactive)
NS(=O)(=O)c1nnc(NS(=O)(=O)c2ccc(F)cc2)s1	EKVX	> 100 µM (inactive)

Ask: Please give the documented GI50 of CCC1(N=[N+]=[N-])C(=O)c2ccccc2N(C)C1=O (stereo not given)
Result: > 100 µM (inactive)

Ask: Please give the documented GI50 of O=c1[nH]nc(Cc2ccccc2)n1C1CC1
Result: > 100 µM (inactive)

Ask: Please give the documented GI50 of COc1c(C)c2c(c(O)c1C/C=C(\C)CCC(=O)O)C(=O)OC2
Result: > 100 µM (inactive)

Ask: Please give the documented GI50 of CCN(CC)CCSc1c2ccccc2nc2cc(NCC(=O)Nc3ccccc3-c3ccccc3NC(=O)CNc3ccc4c(SCCN(CC)CC)c5ccccc5nc4c3)ccc12
Result: > 100 µM (inactive)

Ask: Please give the documented GI50 of CC1=C(/C=C/C2=CC(=C\C(=O)O)/CC(C3=C(C)CCCC3(C)C)C2)C(C)(C)CCC1 (stereo not given)
Result: 11.3 µM (inactive)

Ask: Please give the documented GI50 of CC(=O)O[C@H]1C(=O)[C@@]2(C)[C@H]([C@H](OC(=O)c3ccccc3)[C@]3(O)C[C@H](OC(=O)[C@H](O)[C@@H](NC(=O)OC(C)(C)C)c4ccco4)C(C)=C1C3(C)C)[C@]1(OC(C)=O)CO[C@@H]1C[C@@H]2O
Result: 14.7 µM (inactive)

Ask: Please give the documented GI50 of O=C1CCC[C@]2(CCCC(=O)N2)C1
Result: > 100 µM (inactive)
